Exercise: state measured Max. LNCaP Tumor Uptake for each of the molecules provided.
- Tested on: LNCaP xenograft tumor
- Assay protocol: μPET/CT imaging of LNCaP xenograft tumor-bearing mice
- Type: in vivo
- Assay context: image derived calculation (ROI), at time of maximum uptake
Marks after values point to notes of the source that are not given here.

Consider the reported Max. LNCaP Tumor Uptake for these molecules:
- Molecule: "O=C(O)CC[C@H](NC(=O)N[C@@H](CCCCNC(=O)Nc1ccccc1OCc1cn(CCF)nn1)C(=O)O)C(=O)O"
  System name: "LNCaP xenograft tumor"
  Max. LNCaP Tumor Uptake: "5.89 ± 0.27^c %ID/g"
- Molecule: "O=C(O)CC[C@H](NC(=O)N[C@@H](CCCCNC(=O)Nc1cccc(-c2cn(CCF)nn2)c1)C(=O)O)C(=O)O"
  System name: "LNCaP xenograft tumor"
  Max. LNCaP Tumor Uptake: "14.30 %ID/g"
- Molecule: "O=C(O)CC[C@H](NC(=O)N[C@@H](CCCCNC(=O)Nc1ccc(-c2cn(CCF)nn2)cc1)C(=O)O)C(=O)O"
  System name: "LNCaP xenograft tumor"
  Max. LNCaP Tumor Uptake: "12.51 %ID/g"

Output Max. LNCaP Tumor Uptake of O=C(O)CCC(NC(=O)NC(CCCCNC(=O)c1ccc([18F])nc1)C(=O)O)C(=O)O (stereo not shown) [DCFPyL, reference compound]
5.71 ± 0.61^c %ID/g

====

- Tested on: LNCaP xenograft tumor
- Assay protocol: μPET/CT imaging of LNCaP xenograft tumor-bearing mice
- Format: in vivo
- Assay context: image derived calculation (ROI), at time of maximum uptake
Marks after values point to notes of the source that are not given here.
Reported metric: Max. LNCaP Tumor Uptake

Worked cases, Max. LNCaP Tumor Uptake given:
- Compound: "O=C(O)CC[C@H](NC(=O)N[C@@H](CCCCNC(=O)Nc1ccccc1-c1cn(CCF)nn1)C(=O)O)C(=O)O [RPS-042]"
  Reported: "10.06 ± 1.33^c %ID/g"
- Compound: "O=C(O)CC[C@H](NC(=O)N[C@@H](CCCCNC(=O)Nc1ccc(OCc2cn(CCF)nn2)cc1)C(=O)O)C(=O)O [RPS-038]"
  Reported: "8.87 ± 0.64^c %ID/g"

// next entry
Identify measured Max. LNCaP Tumor Uptake obtained with LNCaP xenograft tumor for O=C(O)CC[C@H](NC(=O)N[C@@H](CCCCNC(=O)Nc1cccc(OCc2cn(CCF)nn2)c1)C(=O)O)C(=O)O [RPS-043] .
9.04 ± 1.88^c %ID/g

====

- Tested on: LNCaP xenograft tumor
- Assay protocol: μPET/CT imaging of LNCaP xenograft tumor-bearing mice
- Type: in vivo
- Assay context: image derived
Reported metric: Max. LNCaP Tumor Uptake Time p.i. (h)
Answers are plain numbers, in h.

Known Max. LNCaP Tumor Uptake Time p.i. results, listed for orientation:
- Compound: "O=C(O)CCC(NC(=O)NC(CCCCNC(=O)c1ccc([18F])nc1)C(=O)O)C(=O)O (centres unmarked) [DCFPyL, reference compound]"
  Unit tag: "h"
  Reported: 1
- Compound: "O=C(O)CC[C@H](NC(=O)N[C@@H](CCCCNC(=O)Nc1ccccc1-c1cn(CCF)nn1)C(=O)O)C(=O)O"
  Unit tag: "h"
  Reported: 2
- Compound: "O=C(O)CC[C@H](NC(=O)N[C@@H](CCCCNC(=O)Nc1ccccc1OCc1cn(CCF)nn1)C(=O)O)C(=O)O"
  Unit tag: "h"
  Reported: 2
- Compound: "O=C(O)CC[C@H](NC(=O)N[C@@H](CCCCNC(=O)Nc1ccc(OCc2cn(CCF)nn2)cc1)C(=O)O)C(=O)O"
  Unit tag: "h"
  Reported: 2

# ---- query compound ----
Please tell me the measured Max. LNCaP Tumor Uptake Time p.i. for "O=C(O)CC[C@H](NC(=O)N[C@@H](CCCCNC(=O)Nc1cccc(OCc2cn(CCF)nn2)c1)C(=O)O)C(=O)O" ; system: LNCaP xenograft tumor.
2
